- procedure_text: Formation of 1,5-cz-[Ln(Lig)] from Lig and Ln^III ions (metal dependent click-zip), MOPS/NaOH buffer pH 7.0, analytical HPLC (Charts 1, 2)
- measurement_setup: Eu^III; after 1 week at 80° C.; MOPS/NaOH buffer pH 7.0
Give measured conversion to 1,5-cz-[Ln(Lig)], Eu^III for each item. Keep answers brief.
Write the figure, then the unit, nothing else.

Short answer for CC(C)(N)C#Cc1cccc(CN2CCN(CC(=O)O)CCN(Cc3cc(-c4ccccc4)cc(CN=[N+]=[N-])n3)CCN(CC(=O)O)CC2)n1 [TD1054] : conversion to 1,5-cz-[Ln(Lig)], Eu^III was 28%

Short answer for CC(C)(C)C#Cc1cccc(CN2CCN(CC(=O)O)CCN(Cc3cccc(CN=[N+]=[N-])n3)CCN(CC(=O)O)CC2)n1 [TD959] : conversion to 1,5-cz-[Ln(Lig)], Eu^III was 51%

Short answer for C#Cc1cccc(CN2CCN(CC(=O)O)CCN(Cc3cc(C(=O)OC(C)C)cc(CN=[N+]=[N-])n3)CCN(CC(=O)O)CC2)n1 [TD1148] : conversion to 1,5-cz-[Ln(Lig)], Eu^III was 0%

Short answer for C#Cc1cccc(CN2CCN(CCC(=O)O)CCN(Cc3cccc(CN=[N+]=[N-])n3)CCN(CCC(=O)O)CC2)n1 [TD801] : conversion to 1,5-cz-[Ln(Lig)], Eu^III was 0%

Short answer for C#Cc1cccc(CN2CCN(CC(=O)O)CCN(Cc3cc(Cl)cc(CN=[N+]=[N-])n3)CCN(CC(=O)O)CC2)n1 [TD764] : conversion to 1,5-cz-[Ln(Lig)], Eu^III was 79%

Short answer for C#Cc1cccc(CN2CCN(CC(N)=O)CCN(Cc3cc(-c4ccccc4)cc(CN=[N+]=[N-])n3)CCN(CC(N)=O)CC2)n1 [TD779] : conversion to 1,5-cz-[Ln(Lig)], Eu^III was 0%

Short answer for [N-]=[N+]=NCc1cccc(CN2CCN(CC(=O)O)CCN(Cc3cccc(C#CC4CC4)n3)CCN(CC(=O)O)CC2)n1 [TD943] : conversion to 1,5-cz-[Ln(Lig)], Eu^III was 36%

Short answer for [N-]=[N+]=NCc1cccc(CN2CCN(CC(=O)O)CCN(Cc3cccc(C#CC4CCNCC4)n3)CCN(CC(=O)O)CC2)n1 [TD1127] : conversion to 1,5-cz-[Ln(Lig)], Eu^III was 53%

###

- procedure_text: Formation of 1,5-cz-[Ln(Lig)] from Lig and Ln^III ions (metal dependent click-zip), MOPS/NaOH buffer pH 7.0, analytical HPLC (Charts 1, 2)
- measurement_setup: Yb^III; after 1 hour at 80° C.; MOPS/NaOH buffer pH 7.0
Give measured conversion to 1,5-cz-[Ln(Lig)], Yb^III for each item. Keep answers brief.

Short answer for CC(C)(N)C#Cc1cccc(CN2CCN(CC(=O)O)CCN(Cc3cc(-c4ccccc4)cc(CN=[N+]=[N-])n3)CCN(CC(=O)O)CC2)n1 : conversion to 1,5-cz-[Ln(Lig)], Yb^III was 53%

Short answer for C#Cc1cccc(CN2CCN(CC(=O)O)CCN(Cc3cc(N(C)C)cc(CN=[N+]=[N-])n3)CCN(CC(=O)O)CC2)n1 : conversion to 1,5-cz-[Ln(Lig)], Yb^III was 75%

Short answer for C#Cc1cccc(CN2CCN(CC(=O)O)CCN(Cc3cccc(CN=[N+]=[N-])n3)CCN(CP(=O)(O)O)CC2)n1 : conversion to 1,5-cz-[Ln(Lig)], Yb^III was 40%

Short answer for [N-]=[N+]=NCc1cccc(CN2CCN(CC(=O)O)CCN(Cc3cccc(C#Cc4ccccc4)n3)CCN(CC(=O)O)CC2)n1 : conversion to 1,5-cz-[Ln(Lig)], Yb^III was 2%

Short answer for C#Cc1cccc(CN2CCN(CP(=O)(O)c3ccccc3)CCN(Cc3cccc(CN=[N+]=[N-])n3)CCN(CP(=O)(O)c3ccccc3)CC2)n1 : conversion to 1,5-cz-[Ln(Lig)], Yb^III was 1%

Short answer for CC(C)(C)C#Cc1cccc(CN2CCN(CC(=O)O)CCN(Cc3cccc(CN=[N+]=[N-])n3)CCN(CC(=O)O)CC2)n1 : conversion to 1,5-cz-[Ln(Lig)], Yb^III was 5%

Short answer for [N-]=[N+]=NCc1cccc(CN2CCN(CC(=O)O)CCN(Cc3cccc(C#CC45CC6CC(CC(C6)C4)C5)n3)CCN(CC(=O)O)CC2)n1 : conversion to 1,5-cz-[Ln(Lig)], Yb^III was 5%

Short answer for C#Cc1cccc(CN2CCN(CC(=O)O)CCN(Cc3cccc(CN=[N+]=[N-])n3)CCN(CC(=O)O)CC2)n1 : conversion to 1,5-cz-[Ln(Lig)], Yb^III was 64%

Short answer for C#Cc1cccc(CN2CCN(CC(=O)O)CCN(Cc3cc(-c4ccccc4)cc(CN=[N+]=[N-])n3)CCN(CC(=O)O)CC2)n1 : conversion to 1,5-cz-[Ln(Lig)], Yb^III was 61%

Short answer for C#CCNC(=O)CN1CCN(CC(=O)O)CCN(Cc2cc(-c3ccccc3)cc(CN=[N+]=[N-])n2)CCN(CC(=O)O)CC1 : conversion to 1,5-cz-[Ln(Lig)], Yb^III was 0%

Short answer for C#Cc1cccc(CN2CCN(CC(=O)NCC(=O)O)CCN(Cc3cc(-c4ccccc4)cc(CN=[N+]=[N-])n3)CCN(CC(=O)NCC(=O)O)CC2)n1 : conversion to 1,5-cz-[Ln(Lig)], Yb^III was 30%

Short answer for C#CCN(CC#C)CCN1CCN(CC(=O)O)CCN(Cc2cc(-c3ccccc3)cc(CN=[N+]=[N-])n2)CCN(CC(=O)O)CC1 : conversion to 1,5-cz-[Ln(Lig)], Yb^III was 0%

Short answer for CC(C)(C#Cc1cccc(CN2CCN(CC(=O)O)CCN(Cc3cccc(CN=[N+]=[N-])n3)CCN(CC(=O)O)CC2)n1)NC(=O)OC(C)(C)C : conversion to 1,5-cz-[Ln(Lig)], Yb^III was 7%

###

- procedure_text: Dissociation of chelates in aq. 0.1M HCl at 80° C. (acid decomplexation kinetic inertness) (Chart 19)
- Format: physicochemical
- measurement_setup: 1 week
Give measured fraction of intact chelate for each item. Keep answers brief.
Please respond with the number in % and leave the unit unwritten.

Short answer for O=C1C[N@@]2CC[N@]3CC[N@@](CC[N@](CC2)Cc2cccc(n2)-c2cnnn2Cc2cc(-c4ccccc4)cc(n2)C3)CC(=O)[O][Nd][O]1 : fraction of intact chelate was 0

Short answer for O=C1C[N@@]2CC[N@]3CC[N@@](CC[N@](CC2)Cc2cccc(n2)-c2cnnn2Cc2cc(-c4ccccc4)cc(n2)C3)CC(=O)[O][Eu][O]1 : fraction of intact chelate was 83

Short answer for O=C1C[N@@]2CC[N@]3CC[N@@](CC[N@](CC2)Cc2cccc(n2)-c2cnnn2Cc2cc(-c4ccccc4)cc(n2)C3)CC(=O)[O][Ce][O]1 : fraction of intact chelate was 0

Short answer for O=C([O-])CN1CCN2CCN(CC(=O)[O-])CCN(CC1)Cc1cccc(n1)-c1cnnn1Cc1cc(-c3ccccc3)cc(n1)C2.[Pb+2] : fraction of intact chelate was 0

Short answer for O=C1C[N@@]2CC[N@]3CC[N@@](CC[N@](CC2)Cc2cccc(n2)-c2cnnn2Cc2cc(-c4ccccc4)cc(n2)C3)CC(=O)[O][Yb][O]1 : fraction of intact chelate was 100

Short answer for O=C([O-])CN1CCN2CCN(CC(=O)[O-])CCN(CC1)Cc1cccc(n1)-c1cnnn1Cc1cc(-c3ccccc3)cc(n1)C2.[Zn+2] : fraction of intact chelate was 0

Short answer for O=C1C[N@@]2CC[N@]3CC[N@@](CC[N@](CC2)Cc2cccc(n2)-c2cn(nn2)Cc2cc(-c4ccccc4)cc(n2)C3)CC(=O)[O][Gd][O]1 : fraction of intact chelate was 0

Short answer for O=C1C[N@@]2CC[N@]3CC[N@@](CC[N@](CC2)Cc2cccc(n2)-c2cnnn2Cc2cc(-c4ccccc4)cc(n2)C3)CC(=O)[O][Tb][O]1 : fraction of intact chelate was 99

Short answer for O=C1C[N@@]2CC[N@]3CC[N@@](CC[N@](CC2)Cc2cccc(n2)-c2cnnn2Cc2cc(-c4ccccc4)cc(n2)C3)CC(=O)[O][Cd][O]1 : fraction of intact chelate was 100

Short answer for O=P1(c2ccccc2)C[N@@]2CC[N@]3CC[N@@](CC[N@](CC2)Cc2cccc(n2)-c2cnnn2Cc2cccc(n2)C3)CP(=O)(c2ccccc2)[O][Gd][O]1 (stereo partly shown) : fraction of intact chelate was 90

###

- procedure_text: Formation of 1,5-cz-[Ln(Lig)] from Lig and Ln^III ions (metal dependent click-zip), MOPS/NaOH buffer pH 7.0, analytical HPLC (Charts 1, 2)
- measurement_setup: Lu^III; after 1 week at 80° C.; MOPS/NaOH buffer pH 7.0
recorded_endpoint: conversion to 1,5-cz-[Ln(Lig)] with hydrolysed group in the side chain, Lu^III (%)
Please respond with the number in % and leave the unit unwritten.

Short answer for CC(C)(C#Cc1cccc(CN2CCN(CC(=O)O)CCN(Cc3cccc(CN=[N+]=[N-])n3)CCN(CC(=O)O)CC2)n1)NC(=O)OC(C)(C)C : conversion to 1,5-cz-[Ln(Lig)] with hydrolysed group in the side chain, Lu^III was 98

Short answer for C#Cc1cccc(CN2CCN(CC(=O)O)CCN(Cc3cc(C(=O)OC(C)C)cc(CN=[N+]=[N-])n3)CCN(CC(=O)O)CC2)n1 : conversion to 1,5-cz-[Ln(Lig)] with hydrolysed group in the side chain, Lu^III was 96

Short answer for C#Cc1cccc(CN2CCN(CC(=O)O)CCN(Cc3cc(C(=O)OC(C)(C)C)cc(CN=[N+]=[N-])n3)CCN(CC(=O)O)CC2)n1 : conversion to 1,5-cz-[Ln(Lig)] with hydrolysed group in the side chain, Lu^III was 91

Short answer for C#Cc1cccc(CN2CCN(CC(=O)O)CCN(Cc3cc(C(=O)OC)cc(CN=[N+]=[N-])n3)CCN(CC(=O)O)CC2)n1 : conversion to 1,5-cz-[Ln(Lig)] with hydrolysed group in the side chain, Lu^III was 97
